TARGET ENTITY: androgen receptor (AR) splicing variant AR-v7 (Homo sapiens, UniProt P10275)
Construct: The degradation activity of compounds on AR-v7 in 22RV1 cells; host or cells: 22RV1 cells
PROTOCOL SUMMARY: Degradation activity on androgen receptor splicing variant AR-v7 in 22RV1 cells (ELISA)
Format: cell-based
MEASUREMENT SETUP: AR-v7 degradation in 22RV1 cells, 48 h, class symbols
// values below are reported DC50

Previously resolved entries follow.
COMPOUND: CC(C)(c1ccc(OCc2ccnc(-n3nccn3)n2)cc1)c1ccc(O[C@H]2C[C@H](Nc3ccc4c(c3)C(=O)N(C3CCC(=O)NC3=O)C4=O)C2)cc1 (some centres unmarked)
DC50: 11 to 100 nM
//
COMPOUND: CC(C)(c1ccc(Oc2nnc(N3CCOCC3)s2)cc1)c1ccc(O[C@H]2C[C@H](Nc3ccc4c(c3)C(=O)N(C3CCC(=O)NC3=O)C4=O)C2)cc1 (some centres unmarked)
DC50: < 10 nM
//
COMPOUND: CC(=O)c1nccc(COc2ccc(C(C)(C)c3ccc(OC4CC5(CCN(c6ccc7c(c6)C(=O)N(C6CCC(=O)NC6=O)C7=O)CC5)C4)cc3)cc2)n1 (centres unmarked)
DC50: 1000 to 5000 nM

DC50 recorded for this compound, O=C1CCC(N2C(=O)c3ccc(N[C@H]4C[C@H](Oc5ccc(C6(c7ccc(OCc8ccnc(N9CC%10(COC%10)C9)n8)cc7)COC6)cc5)C4)cc3C2=O)C(=O)N1 (some centres unmarked) , is < 10 nM

DC50 recorded for this compound, CC(C)(c1ccc(OCc2ccnc(N3CCC[C@H](O)C3)n2)cc1)c1ccc(O[C@H]2C[C@@H](Nc3ccc4c(c3)C(=O)N(C3CCC(=O)NC3=O)C4=O)C2)cc1 (some centres unmarked) , is < 10 nM

----------
TARGET ENTITY: androgen receptor (AR) splicing variant AR-v7 (Homo sapiens)
Construct: The degradation activity of compounds on AR-v7 in 22RV1 cells; host or cells: 22RV1 cells
Sequence (P10275 1-644 isoform P10275-3): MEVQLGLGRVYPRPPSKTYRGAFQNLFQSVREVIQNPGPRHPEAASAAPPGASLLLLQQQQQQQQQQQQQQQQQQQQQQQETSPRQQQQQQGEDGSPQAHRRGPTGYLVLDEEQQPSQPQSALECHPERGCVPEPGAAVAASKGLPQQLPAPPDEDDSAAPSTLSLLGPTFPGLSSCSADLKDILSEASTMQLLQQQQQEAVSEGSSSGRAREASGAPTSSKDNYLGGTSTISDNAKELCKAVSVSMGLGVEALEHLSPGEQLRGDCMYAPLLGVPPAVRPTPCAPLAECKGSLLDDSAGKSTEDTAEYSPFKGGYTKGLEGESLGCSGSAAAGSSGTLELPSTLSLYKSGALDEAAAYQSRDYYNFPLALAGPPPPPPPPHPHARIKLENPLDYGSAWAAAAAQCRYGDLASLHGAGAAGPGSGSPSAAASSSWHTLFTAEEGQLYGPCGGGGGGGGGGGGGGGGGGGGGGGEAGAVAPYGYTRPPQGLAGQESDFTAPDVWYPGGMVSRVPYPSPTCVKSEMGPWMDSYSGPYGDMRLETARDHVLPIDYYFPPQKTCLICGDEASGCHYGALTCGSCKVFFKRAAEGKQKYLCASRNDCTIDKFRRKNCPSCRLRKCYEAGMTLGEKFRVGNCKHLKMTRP
PROTOCOL SUMMARY: Degradation activity on androgen receptor splicing variant AR-v7 in 22RV1 cells (ELISA)
Format: cell-based
MEASUREMENT SETUP: AR-v7 degradation in 22RV1 cells, 48 h, class symbols
// values below are reported DC50

Previously resolved entries follow.
MOLECULE: CCC(CC)(c1ccc(Oc2cnc(C(C)O)nc2)cc1)c1ccc(O[C@H]2C[C@@H](Nc3ccc4c(c3)C(=O)N(C3CCC(=O)NC3=O)C4=O)C2)cc1 (some centres unmarked) [Example 133]
OBSERVED: < 10 nM
--
MOLECULE: Cc1nc(-c2ncc(Oc3ccc(C(C)(C)c4ccc(OC5CC(Nc6ccc7c(c6)C(=O)N(C6CCC(=O)NC6=O)C7=O)C5)cn4)cc3)cn2)no1 (centres unmarked) [Example 221]
OBSERVED: < 10 nM
--
MOLECULE: CC1(CNc2nccc(COc3ccc(C(C)(C)c4ccc(O[C@H]5C[C@@H](Nc6ccc7c(c6)C(=O)N(C6CCC(=O)NC6=O)C7=O)C5)cc4)cc3)n2)COC1 (some centres unmarked) [Example 269]
OBSERVED: 101 to 1000 nM
--
MOLECULE: CC(C)(c1ccc(OCCCCCCCCOCCCCNc2ccc3c(c2)C(=O)N(C2CCC(=O)NC2=O)C3=O)cc1)c1ccc(OCc2cnc(NS(C)(=O)=O)nc2)cc1 (centres unmarked) [Example 51]
OBSERVED: 101 to 1000 nM

For the next question, use this molecule.
DC50 recorded for this molecule, Cc1nc(-c2cccc(Oc3ccc(C(C)(C)c4ccc(O[C@H]5C[C@@H](Nc6ccc7c(c6)C(=O)N(C6CCC(=O)NC6=O)C7=O)C5)cc4)cc3)n2)no1 (some centres unmarked) [Example 422] , is 11 to 100 nM
